Listed next: entries and their corresponding EC50.
biological target: T1, purified recombinant monkey (macaque) CD27 (macaque); experiment: ELISA on plate-bound monkey CD27, half-max binding
T1 construct: The paragraph speaks of cynomolgus macaques as the model; the protein itself is only called macaque / monkey CD27; Captured with anti-Flag antibody in one format; also called monkey CD27
In your response, the unit should come after the numeric value.

Given the entry 1G5-1B9 (antibody, V domains shown, Human IgG from hybridoma) VH: QVQLVESGGGVVQPGRSLRLSCAASGFSFSSYGMHWVRQAPGKGLEWVALLWYDGSHKDFADSVKGRFTISRDNSKNTLDLQMNSLRAEDTAVYYCAREGLAVPGHWYFDLWGRGTLVTVSS VL: AIQLTQSPSSLSASVGDRVTITCRASQGISSALAWYQQKPGKAPKLLIYDASSLESGVPSRFSGSGSGTDFTLTISSLQPEDFATYYCQQFNTYPRTFGQGTKVEIK , report its measured EC50.
0.065 µg/mL
